target: GST-Bcl-2 (Homo sapiens, UniProt P10415); test: TR-FRET binding assay, GST-Bcl-2 with F-Bak peptide probe; conditions: TR-FRET Binding Affinity, GST-Bcl-2, F-Bak peptide probe
Sequence (P10415 whole entry): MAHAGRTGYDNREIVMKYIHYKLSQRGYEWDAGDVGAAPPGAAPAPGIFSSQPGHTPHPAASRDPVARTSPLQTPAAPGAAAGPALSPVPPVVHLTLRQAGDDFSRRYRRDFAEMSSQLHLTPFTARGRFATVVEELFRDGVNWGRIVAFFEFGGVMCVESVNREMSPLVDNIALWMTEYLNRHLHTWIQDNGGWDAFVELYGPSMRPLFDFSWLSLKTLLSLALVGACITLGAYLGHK
Reported pKi values are given for each entry in this list.
Notebook: values listed as pKi are -log10 of the concentration (mol/L).

{"columns": ["MOLECULE_SMILES", "pKi"],
 "data": [
  ["COCCN1CCC(Nc2ccc(S(=O)(=O)NC(=O)c3ccc(N4CCN(CC5=C(c6ccc(Cl)cc6)CC(C)(C)CC5)CC4)cc3Oc3cccc4[nH]ccc34)cc2[N+](=O)[O-])CC1", 9.82],
  ["CC1(C)CCC(CN2CCN(c3ccc(C(=O)NS(=O)(=O)c4ccc(NC5CCN(Cc6cscn6)CC5)c([N+](=O)[O-])c4)c(Oc4ccc5[nH]ccc5c4)c3)CC2)=C(c2ccc(Cl)cc2)C1", 9.04],
  ["CC1(C)CCC(CN2CCN(c3ccc(C(=O)NS(=O)(=O)c4ccc(NCC5(N)CCOCC5)c([N+](=O)[O-])c4)c(Oc4ccc5[nH]ccc5c4)c3)CC2)=C(c2ccc(Cl)cc2)C1", 9.99]
]}

# context switch: different compound, same pKi
Using the record for CC1(C)CCC(CN2CCN(c3ccc(C(=O)NS(=O)(=O)c4ccc(NC5CCN(CCCC(F)(F)F)CC5)c([N+](=O)[O-])c4)c(Oc4cccc5[nH]ccc45)c3)CC2)=C(c2ccc(Cl)cc2)C1 , report its pKi.
9.20

---

target: UniProt:P10415; experiment: TR-FRET binding assay, GST-Bcl-2 with F-Bak peptide probe; conditions: TR-FRET Binding Affinity
pKi: −log10 of the molar value.
REPORTED_ENDPOINT: pKi

Solved cases (2 shown):
{"columns": ["MOLECULE", "RESULT"],
 "data": [
  ["CC1(C)CCC(CN2CCN(c3ccc(C(=O)NS(=O)(=O)c4ccc(NC[C@H]5CC[C@H](C#N)CC5)c([N+](=O)[O-])c4)c(Oc4cccc5[nH]ncc45)c3)CC2)=C(c2ccc(Cl)cc2)C1", "> 11.00"],
  ["CC1(C)CCC(CN2CCN(c3ccc(C(=O)NS(=O)(=O)c4ccc(OCC5CCOCC5)c(Cl)c4)c(Oc4cccc5[nH]cnc45)c3)CC2)=C(c2ccc(Cl)cc2)C1", "> 11.00"]
]}

Provide the documented pKi with UniProt:P10415 as the system for CN1[C@@H]2CC[C@H]1CC(Nc1ccc(S(=O)(=O)NC(=O)c3ccc(N4CCN(CC5=C(c6ccc(Cl)cc6)CC(C)(C)CC5)CC4)cc3Oc3ccc4[nH]ccc4c3)cc1[N+](=O)[O-])C2 (stereo partly drawn)
10.10

---

biological target: GST-Bcl-2 (Homo sapiens, UniProt P10415); test: TR-FRET binding assay, GST-Bcl-2 with F-Bak peptide probe; conditions: TR-FRET Binding Affinity
Overview of reported Ki across a group of compounds:

{"columns": ["COMPOUND", "ASSAYED_SYSTEM", "REPORTED_ENDPOINT", "RESULT"],
 "data": [
  ["O=C(NS(=O)(=O)c1cnc(OCC2(F)CCN(C3COC3)CC2)c(Cl)c1)c1ccc(N2CCN(CC3=C(c4ccc(Cl)cc4)CCC(F)(F)C3)CC2)cc1Oc1cccc2[nH]ncc12", "GST-Bcl-2 (Homo sapiens, UniProt P10415)", "Ki", "< 0.01 nM"],
  ["CC1(C)CCC(CN2CCN(c3ccc(C(=O)NS(=O)(=O)c4cnc(OCC5CCC(F)(F)CC5)c(Cl)c4)c(Oc4cccc5[nH]ncc45)c3)CC2)=C(c2ccc(Cl)cc2)C1", "GST-Bcl-2 (Homo sapiens, UniProt P10415)", "Ki", "0.064 nM"],
  ["COC1(C)CCC(c2ccc(Cl)cc2)=C(CN2CCN(c3ccc(C(=O)NS(=O)(=O)c4cnc(OCC5CCC(C)(O)CC5)c(Cl)c4)c(Oc4cccc5[nH]ncc45)c3)CC2)C1 (stereo not drawn)", "GST-Bcl-2 (Homo sapiens, UniProt P10415)", "Ki", "< 0.01 nM"],
  ["CN(C)CC(=O)N1CCO[C@@H](CNc2ccc(S(=O)(=O)NC(=O)c3ccc(N4CCN(CC5=C(c6ccc(Cl)cc6)CC(C)(C)CC5)CC4)cc3Oc3cccc4[nH]cnc34)cc2[N+](=O)[O-])C1", "GST-Bcl-2 (Homo sapiens, UniProt P10415)", "Ki", "< 0.01 nM"],
  ["CC[C@]1(O)CC[C@@H](COc2ncc(S(=O)(=O)NC(=O)c3ccc(N4CCN(CC5=C(c6ccc(Cl)cc6)CC(C)(C)CC5)CC4)cc3Oc3cccc4[nH]ncc34)cc2Cl)CC1", "GST-Bcl-2 (Homo sapiens, UniProt P10415)", "Ki", "6.3 nM"]
]}

Entry CC1(C)CCC(CN2CCN(c3ccc(C(=O)NS(=O)(=O)c4cnc(OCC5CC5(F)F)c(Cl)c4)c(Oc4cccc5[nH]ncc45)c3)CC2)=C(c2ccc(Cl)cc2)C1 (stereo not drawn) has what Ki?
0.017 nM

---

target: GST-Bcl-2 (Homo sapiens); test: TR-FRET binding assay, GST-Bcl-2 with F-Bak peptide probe; details: TR-FRET; Bcl-XL Ki divided by Bcl-2 Ki
REPORTED_ENDPOINT: Binding selectivity ratio (Bcl-XL Ki/Bcl-2 Ki)

Some solved cases for reference:
{"columns": ["COMPOUND", "RESULT"],
 "data": [
  ["COC(=O)N1CCOC(CNc2ccc(S(=O)(=O)NC(=O)c3ccc(N4CCN(CC5=C(c6ccc(Cl)cc6)CC(C)(C)CC5)CC4)cc3Oc3cccc4[nH]ncc34)cc2[N+](=O)[O-])C1 (stereo not drawn) [Example 505]", ">486.1"],
  ["CCN(C)C(=O)N1CCOC(CNc2ccc(S(=O)(=O)NC(=O)c3ccc(N4CCN(CC5=C(c6ccc(Cl)cc6)CC(C)(C)CC5)CC4)cc3Oc3cccc4[nH]cnc34)cc2[N+](=O)[O-])C1 (stereo not drawn) [Example 507]", ">3334.7"],
  ["CC1(C)CCC(CN2CCN(c3ccc(C(=O)NS(=O)(=O)c4ccc(NC[C@H]5CC[C@@](C)(O)CC5)c([N+](=O)[O-])c4)c(Oc4cccc5[nH]ncc45)c3)CC2)=C(c2ccc(Cl)cc2)C1 [Example 526]", ">467.9"]
]}

Consider the compound CC1(C)CCC(CN2CCN(c3ccc(C(=O)NS(=O)(=O)c4ccc(NC[C@H]5CN(C6CC6)CCO5)c([N+](=O)[O-])c4)c(Oc4cccc5[nH]ncc45)c3)CC2)=C(c2ccc(Cl)cc2)C1 [Example 529] and give its measured Binding selectivity ratio (Bcl-XL Ki/Bcl-2 Ki).
>828.4

Reported Binding selectivity ratio (Bcl-XL Ki/Bcl-2 Ki) for CC1(C)CCC(CN2CCN(c3ccc(C(=O)NS(=O)(=O)c4cnc(OC[C@@H]5C[C@H]6C[C@@H]5C[C@@]6(C)O)c(Cl)c4)c(Oc4cccc5[nH]ncc45)c3)CC2)=C(c2ccc(Cl)cc2)C1 [Example 520] : what is it?
>1537.8

What Binding selectivity ratio (Bcl-XL Ki/Bcl-2 Ki) value was documented for this compound, O=C(NS(=O)(=O)c1cnc(OCC2(F)CCN(C3COC3)CC2)c(Cl)c1)c1ccc(N2CCN(CC3=C(c4ccc(Cl)cc4)CCC(F)(F)C3)CC2)cc1Oc1cccc2[nH]ncc12 [Example 522] ?
>207.9

Look at this compound and give its reported Binding selectivity ratio (Bcl-XL Ki/Bcl-2 Ki). CC1(C)CCC(CN2CCN(c3ccc(C(=O)NS(=O)(=O)c4ccc(NC[C@H]5CN(C6CC6)CCO5)c([N+](=O)[O-])c4)c(Oc4cccc5[nH]nnc45)c3)CC2)=C(c2ccc(Cl)cc2)C1 [Example 527]
>421.9

// returns reported Binding selectivity ratio (Bcl-XL Ki/Bcl-2 Ki) for input CC1(C)CCC(CN2CCN(c3ccc(C(=O)NS(=O)(=O)c4ccc(NC[C@H]5CC[C@H](C#N)CC5)c([N+](=O)[O-])c4)c(Oc4cccc5[nH]ncc45)c3)CC2)=C(c2ccc(Cl)cc2)C1 [Example 484]
>3433.9

Quick check: Binding selectivity ratio (Bcl-XL Ki/Bcl-2 Ki) of CC1(C)CCC(CN2CCN(c3ccc(C(=O)NS(=O)(=O)c4ccc(OCC5(F)CCOCC5)c(Cl)c4)c(Oc4cccc5[nH]cnc45)c3)CC2)=C(c2ccc(Cl)cc2)C1 [Example 499] ?
>10415.0

---

The molecules listed here are annotated with their Ki.
molecular target: GST-Bcl-2 (Homo sapiens, UniProt P10415); test: TR-FRET binding assay, GST-Bcl-2 with F-Bak peptide probe; conditions: TR-FRET Binding Affinity, GST-Bcl-2, F-Bak peptide probe
Write it as a number; the unit pM goes unstated.

{"columns": ["MOLECULE", "ASSAYED_SYSTEM", "REPORTED_ENDPOINT", "RESULT"],
 "data": [
  ["C[C@@H](c1ccccc1-c1ccc(Cl)cc1)N1CCN(c2ccc(C(=O)NS(=O)(=O)c3ccc(NCC4CCOCC4)c([N+](=O)[O-])c3)c(Oc3cccc4[nH]ccc34)c2)CC1 [Example 256]", "GST-Bcl-2 (Homo sapiens, UniProt P10415)", "Ki", 120],
  ["CC1(C)CCC(CN2CCN(c3ccc(C(=O)NS(=O)(=O)c4ccc(NCc5cncs5)c([N+](=O)[O-])c4)c(Oc4ccc5[nH]ccc5c4)c3)CC2)=C(c2ccc(Cl)cc2)C1 [Example 288]", "GST-Bcl-2 (Homo sapiens, UniProt P10415)", "Ki", 177],
  ["CC1(C)CCC(CN2CCN(c3ccc(C(=O)NS(=O)(=O)c4ccc(NCC56CC7CC(C5)C(O)C(C7)C6)c([N+](=O)[O-])c4)c(Oc4ccc5[nH]ccc5c4)c3)CC2)=C(c2ccc(Cl)cc2)C1 (stereo not shown) [Example 322]", "GST-Bcl-2 (Homo sapiens, UniProt P10415)", "Ki", 184],
  ["CC1(C)CCC(CN2CCN(c3ccc(C(=O)NS(=O)(=O)c4ccc(NCC5(N)CCOCC5)c([N+](=O)[O-])c4)c(Oc4cccc5[nH]ccc45)c3)CC2)=C(c2ccc(Cl)cc2)C1 [Example 176]", "GST-Bcl-2 (Homo sapiens, UniProt P10415)", "Ki", 180],
  ["CC1(C)CCC(CN2CCN(c3ccc(C(=O)NS(=O)(=O)c4ccc(NCC5CCS(=O)(=O)C5)c([N+](=O)[O-])c4)c(Oc4ccc5[nH]ccc5c4)c3)CC2)=C(c2ccc(Cl)cc2)C1 (stereo not shown) [Example 275]", "GST-Bcl-2 (Homo sapiens, UniProt P10415)", "Ki", 97],
  ["CNc1ccc(S(=O)(=O)NC(=O)c2ccc(N3CCN(CC4=C(c5ccc(Cl)cc5)CC(C)(C)CC4)CC3)cc2Oc2cccc3[nH]ccc23)cc1[N+](=O)[O-] [Example 246]", "GST-Bcl-2 (Homo sapiens, UniProt P10415)", "Ki", 783],
  ["CC1(C)CCC(c2ccc(Cl)cc2)=C(CN2CCN(c3ccc(C(=O)NS(=O)(=O)c4ccc(NCCCN5CCOCC5)c([N+](=O)[O-])c4)c(Oc4ccc5[nH]ccc5c4)c3)CC2)C1 [Example 50]", "GST-Bcl-2 (Homo sapiens, UniProt P10415)", "Ki", 471],
  ["CC1(C)CCC(CN2CCN(c3ccc(C(=O)NS(=O)(=O)c4ccc(OCCCS(C)(=O)=O)c([N+](=O)[O-])c4)c(Oc4cccc5[nH]ccc45)c3)CC2)=C(c2ccc(Cl)cc2)C1 [Example 316]", "GST-Bcl-2 (Homo sapiens, UniProt P10415)", "Ki", 149]
]}

Any idea what Ki was measured for CC1(C)CCC(CN2CCN(c3ccc(C(=O)NS(=O)(=O)c4ccc(NC[C@H]5CC[C@@H](O)CC5)c([N+](=O)[O-])c4)c(Oc4ccc5[nH]ccc5c4)c3)CC2)=C(c2ccc(Cl)cc2)C1 [Example 312] ?
340

Item under review: O=C(NS(=O)(=O)c1ccc(NC2CCN(S(=O)(=O)c3ccccc3)CC2)c([N+](=O)[O-])c1)c1ccc(N2CCN(Cc3ccccc3-c3ccc(Cl)cc3)CC2)cc1Oc1ccccc1 [Example 157] . Reported Ki?
4450
